experiment: cytotoxicity on HMVECs, Alamar blue staining; details: human, human microvascular endothelial cells (HMVECs)
assay_metric: IC50

Item under review: COc1cc2c(Nc3ccc(Cl)c(Cl)c3F)ncnc2cc1OCC1C[C@@H]2CN(C)C[C@@H]2C1 (stereo partly shown) [EXEL-7647] . Reported IC50?
~1300 nM

* * *

biological target: UniProtKB P04626; test: ErbB2 phosphorylation in BT474 tumor xenografts in mice; type: in vivo; details: BT474 xenografts, correlated with plasma concentration; read-out: IC50 of inhibition of phospho-ErbB2 accumulation in tumors (plasma concentration)
Sequence (P04626 23-1255): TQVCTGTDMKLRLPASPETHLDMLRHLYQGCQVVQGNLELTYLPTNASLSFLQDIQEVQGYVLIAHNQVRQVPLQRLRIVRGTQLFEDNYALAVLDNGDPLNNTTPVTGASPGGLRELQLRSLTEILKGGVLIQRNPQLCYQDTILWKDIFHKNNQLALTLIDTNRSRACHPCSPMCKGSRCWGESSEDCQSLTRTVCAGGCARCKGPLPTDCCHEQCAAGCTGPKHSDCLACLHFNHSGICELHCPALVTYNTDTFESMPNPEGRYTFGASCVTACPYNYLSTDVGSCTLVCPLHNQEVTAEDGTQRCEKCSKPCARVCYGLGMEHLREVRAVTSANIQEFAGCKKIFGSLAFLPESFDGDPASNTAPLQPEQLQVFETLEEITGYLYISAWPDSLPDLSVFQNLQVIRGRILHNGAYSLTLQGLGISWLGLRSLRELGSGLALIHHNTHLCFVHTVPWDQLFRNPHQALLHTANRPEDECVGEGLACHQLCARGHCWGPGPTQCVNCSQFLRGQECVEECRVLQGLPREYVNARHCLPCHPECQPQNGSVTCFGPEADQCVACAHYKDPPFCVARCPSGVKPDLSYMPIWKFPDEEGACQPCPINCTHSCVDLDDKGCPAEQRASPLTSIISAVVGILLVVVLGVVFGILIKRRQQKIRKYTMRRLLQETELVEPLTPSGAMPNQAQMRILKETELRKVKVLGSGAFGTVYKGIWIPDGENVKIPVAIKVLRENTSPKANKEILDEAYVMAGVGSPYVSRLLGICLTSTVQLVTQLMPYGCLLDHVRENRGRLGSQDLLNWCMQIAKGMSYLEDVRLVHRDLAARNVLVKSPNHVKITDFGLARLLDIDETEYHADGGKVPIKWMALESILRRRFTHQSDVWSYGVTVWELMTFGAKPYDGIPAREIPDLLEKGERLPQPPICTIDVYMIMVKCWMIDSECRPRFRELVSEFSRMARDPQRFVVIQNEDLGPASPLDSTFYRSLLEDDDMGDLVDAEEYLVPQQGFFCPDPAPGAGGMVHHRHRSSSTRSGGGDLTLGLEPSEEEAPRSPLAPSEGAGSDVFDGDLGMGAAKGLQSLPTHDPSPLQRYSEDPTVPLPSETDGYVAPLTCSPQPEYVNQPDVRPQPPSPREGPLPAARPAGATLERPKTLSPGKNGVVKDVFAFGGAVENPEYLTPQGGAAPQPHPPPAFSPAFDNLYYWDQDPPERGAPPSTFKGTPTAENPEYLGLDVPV
assay_metric: IC50
Remember to quote the unit after the number.

Consider the molecule shown here: COc1cc2c(Nc3ccc(Cl)c(Cl)c3F)ncnc2cc1OCC1C[C@@H]2CN(C)C[C@@H]2C1 (stereo partly shown) What is its recorded IC50?
3.58 µM

* * *

biological target: EGFR (Homo sapiens, UniProt P00533); experiment: EGF-induced EGFR phosphorylation in A431 tumor xenografts in mice; settings: read-out: IC50 plasma concentration for inhibition of EGFR phosphorylation in tumors
Sequence (P00533 25-1210): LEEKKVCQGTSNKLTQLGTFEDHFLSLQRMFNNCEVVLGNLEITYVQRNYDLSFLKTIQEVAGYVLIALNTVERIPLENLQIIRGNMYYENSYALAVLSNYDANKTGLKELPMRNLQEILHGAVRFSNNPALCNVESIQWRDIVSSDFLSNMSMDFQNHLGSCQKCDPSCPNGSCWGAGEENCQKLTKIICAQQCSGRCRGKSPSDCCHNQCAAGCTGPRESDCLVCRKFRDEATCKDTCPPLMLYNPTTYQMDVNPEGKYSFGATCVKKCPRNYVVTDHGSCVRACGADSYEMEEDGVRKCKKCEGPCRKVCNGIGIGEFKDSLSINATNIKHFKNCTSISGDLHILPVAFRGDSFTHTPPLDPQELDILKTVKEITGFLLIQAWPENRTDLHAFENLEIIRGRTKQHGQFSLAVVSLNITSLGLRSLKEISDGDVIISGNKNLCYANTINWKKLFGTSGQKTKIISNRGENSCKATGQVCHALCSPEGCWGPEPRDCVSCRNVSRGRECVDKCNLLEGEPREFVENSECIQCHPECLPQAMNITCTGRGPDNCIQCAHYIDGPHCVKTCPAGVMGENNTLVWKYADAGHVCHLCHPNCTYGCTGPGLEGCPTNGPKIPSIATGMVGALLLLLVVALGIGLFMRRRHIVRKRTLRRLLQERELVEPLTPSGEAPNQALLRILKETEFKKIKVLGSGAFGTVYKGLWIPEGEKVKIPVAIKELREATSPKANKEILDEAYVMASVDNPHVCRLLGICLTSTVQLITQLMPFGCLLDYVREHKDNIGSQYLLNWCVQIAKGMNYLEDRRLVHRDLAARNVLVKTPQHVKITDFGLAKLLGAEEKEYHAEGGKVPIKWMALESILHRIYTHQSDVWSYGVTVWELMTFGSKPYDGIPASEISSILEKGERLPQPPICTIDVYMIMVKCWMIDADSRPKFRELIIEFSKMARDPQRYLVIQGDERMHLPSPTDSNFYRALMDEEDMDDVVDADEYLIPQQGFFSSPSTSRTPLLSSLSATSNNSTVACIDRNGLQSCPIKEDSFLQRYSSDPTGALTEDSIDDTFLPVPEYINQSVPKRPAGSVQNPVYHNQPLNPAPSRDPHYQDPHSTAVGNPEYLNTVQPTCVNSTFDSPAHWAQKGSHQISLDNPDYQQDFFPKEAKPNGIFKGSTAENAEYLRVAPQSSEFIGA
assay_metric: pIC50
Reminder that pIC50 means the negative base-10 logarithm of the concentration expressed in mol/L.

Value lookup for pIC50; key = COc1cc2c(Nc3ccc(Cl)c(Cl)c3F)ncnc2cc1OCC1C[C@@H]2CN(C)C[C@@H]2C1 (stereo partly shown) [EXEL-7647]
6.14

* * *

molecular target: KDR (Mus musculus, UniProt P35918); construct: from tissue; host or cells: mouse lung; test: VEGF-induced KDR phosphorylation in mouse lungs; type: in vivo, mice; settings: mouse lung lysate pools; read-out: IC50 of decrease of VEGF-induced KDR receptor phosphorylation (plasma concentration)
Sequence (P35918 20-1345): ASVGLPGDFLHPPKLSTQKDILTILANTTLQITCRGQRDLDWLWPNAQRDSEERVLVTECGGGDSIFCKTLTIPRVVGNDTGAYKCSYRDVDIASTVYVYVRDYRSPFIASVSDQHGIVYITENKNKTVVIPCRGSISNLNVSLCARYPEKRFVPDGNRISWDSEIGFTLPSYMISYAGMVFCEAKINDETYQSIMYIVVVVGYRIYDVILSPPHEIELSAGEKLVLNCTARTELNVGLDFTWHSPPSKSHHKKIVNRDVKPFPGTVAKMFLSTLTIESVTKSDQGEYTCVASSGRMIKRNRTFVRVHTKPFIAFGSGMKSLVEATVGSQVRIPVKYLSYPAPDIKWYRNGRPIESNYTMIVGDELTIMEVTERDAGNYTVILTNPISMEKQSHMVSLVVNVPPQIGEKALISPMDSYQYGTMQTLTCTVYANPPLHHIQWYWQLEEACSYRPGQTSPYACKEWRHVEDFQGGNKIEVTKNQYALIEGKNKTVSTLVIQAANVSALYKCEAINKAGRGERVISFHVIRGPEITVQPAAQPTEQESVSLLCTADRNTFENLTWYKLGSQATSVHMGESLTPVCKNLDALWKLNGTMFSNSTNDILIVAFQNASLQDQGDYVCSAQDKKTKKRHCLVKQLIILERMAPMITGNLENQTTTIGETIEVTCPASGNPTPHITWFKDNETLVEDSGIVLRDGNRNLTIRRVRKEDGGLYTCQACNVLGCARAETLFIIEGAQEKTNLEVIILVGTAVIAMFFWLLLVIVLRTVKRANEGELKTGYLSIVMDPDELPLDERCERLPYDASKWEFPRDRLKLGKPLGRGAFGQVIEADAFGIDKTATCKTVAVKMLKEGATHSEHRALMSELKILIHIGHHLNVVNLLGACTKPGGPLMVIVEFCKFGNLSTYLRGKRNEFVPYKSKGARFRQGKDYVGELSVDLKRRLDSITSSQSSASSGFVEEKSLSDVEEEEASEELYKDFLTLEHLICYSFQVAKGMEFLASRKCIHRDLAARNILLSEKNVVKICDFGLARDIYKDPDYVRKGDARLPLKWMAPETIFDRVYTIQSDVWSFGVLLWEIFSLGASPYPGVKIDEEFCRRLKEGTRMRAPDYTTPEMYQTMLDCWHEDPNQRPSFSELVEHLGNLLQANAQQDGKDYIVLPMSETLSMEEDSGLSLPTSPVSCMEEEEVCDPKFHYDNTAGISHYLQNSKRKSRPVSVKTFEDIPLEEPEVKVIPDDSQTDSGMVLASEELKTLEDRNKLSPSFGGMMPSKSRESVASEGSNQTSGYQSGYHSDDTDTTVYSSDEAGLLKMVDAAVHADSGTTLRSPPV
assay_metric: IC50

Which IC50 value is on record for COc1cc2c(Nc3ccc(Cl)c(Cl)c3F)ncnc2cc1OCC1C[C@@H]2CN(C)C[C@@H]2C1 (stereo partly shown) [EXEL-7647] ?
~1230 nM

Data provenance: patent US20150010545A1
